- test_name: Test of solubility in different buffers
- Format: physicochemical
- test_context: phosphate buffer, pH 4, aqueous buffer, 0.1M pH = 4 phosphate buffer; read-out: Solubility
Structures can show the parent of a compound that is named as a salt.
measurement_name: Solubility (µg/mL)
Quick note: give the figure in µg/mL, leave out the unit.

Fill in Solubility for record Cc1c(N2CCCC2=O)cccc1S(=O)(=O)N[C@@H](CNC(=O)c1ccc(Cl)s1)C(=O)N1CCN(C)CC1 [Sodium salt]
8900

----------
- test_name: Test of solubility in different buffers
- Assay type: physicochemical
- test_context: hydrogenocarbonate buffer, pH 9, aqueous buffer, 0.2M pH = 9 hydregenocarbonate buffer; read-out: Solubility
Counter-ions that a name gives are not always drawn.
measurement_name: Solubility

Fill in Solubility for record Cc1c(N2CCCC2=O)cccc1S(=O)(=O)N[C@@H](CNC(=O)c1ccc(Cl)s1)C(=O)N1CCN(C)CC1 [Sodium salt]
> 10000 µg/mL

----------
- test_name: Test of solubility in different buffers
- Type: physicochemical
- test_context: purified water, water, Purified water; read-out: Solubility
- Procedure: The solubility of sodium, L-lactate and L-tartrate salts of the compound of formula (I) was analyzed in different buffers. The results are described in table below (solubility of the tested compound is expressed in mg/ml).
Counter-ions that a name gives are not always drawn.
measurement_name: Solubility

Fill in Solubility for record Cc1c(N2CCCC2=O)cccc1S(=O)(=O)N[C@@H](CNC(=O)c1ccc(Cl)s1)C(=O)N1CCN(C)CC1 [Sodium salt]
> 10000 µg/mL

----------
- test_name: Test of solubility in different buffers
- Assay type: physicochemical
- test_context: phosphate buffer, pH 7.4, aqueous buffer, 0.1M pH = 7.4 phosphate buffer; read-out: Solubility
Where a name gives a salt, the structure may show the parent alone.
measurement_name: Solubility (µg/mL)
Quick note: give the figure in µg/mL, leave out the unit.

Fill in Solubility for record Cc1c(N2CCCC2=O)cccc1S(=O)(=O)N[C@@H](CNC(=O)c1ccc(Cl)s1)C(=O)N1CCN(C)CC1 [Sodium salt]
6900
